Source of measurements: patent US9718806B2

# methodSummary: Assay 2: brain blood barrier penetration assay (short oral absorption model plus in vitro blood and brain binding)
# Format: in vivo
# testParameters: rat, in vivo; male Han Wistar rats, oral 2 mg/kg; Kp,uu=AUC (brain)/AUC (blood)×(fu,brain/fu.blood)
propertyMeasured: Kp uu
Form: value (number only, do not type unit).

Problem: Dear colleague, I am looking for the recorded Kp uu of the following compound: COc1cc2ncnc(Nc3cccc(Cl)c3F)c2cc1OC(=O)N1CCN(C)C[C@H]1C [Example 1]
Result: 1.3
